Each entry below lists one item and its recorded IC50 value.
biological target: 3-oxo-5-alpha-steroid 4-dehydrogenase 2 (Homo sapiens, UniProt P31213); assay: Inhibition of recombinant human Steroid 5-alpha-reductase type 2
Sequence (P31213 whole entry): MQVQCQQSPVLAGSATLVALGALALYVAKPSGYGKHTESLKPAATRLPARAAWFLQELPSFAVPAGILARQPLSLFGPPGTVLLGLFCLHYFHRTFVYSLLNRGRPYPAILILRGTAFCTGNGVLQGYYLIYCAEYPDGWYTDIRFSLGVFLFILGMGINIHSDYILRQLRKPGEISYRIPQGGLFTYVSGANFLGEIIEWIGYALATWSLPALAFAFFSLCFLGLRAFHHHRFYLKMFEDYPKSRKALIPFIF
Write the value in nM as a bare number.

Q) Param item = Cc1ccc(NC(=O)C2CCC3C4CCC5NC(=O)C=C[C@]5(C)C4CC[C@]23C)cc1 (stereo not given in full) ; retrieve measured IC50.
A) 0.1

Q) Repeat for the following compound: C[C@]12C=CC(=O)NC1CCC1C2CC[C@]2(C)C(C(=O)N3CCCc4ccccc43)CCC12 (stereo not given in full)
A) 1.4

Q) Can you handle C[C@]12C=CC(=O)NC1CCC1C2CC[C@]2(C)C(C(=O)N(c3ccccc3)c3ccccc3)CCC12 (stereo not given in full) next?
A) 25.2
